assay: Clinical pharmacokinetics of mCyd after oral val-mCyd; details: human, plasma, 50 mg, AUC0-inf (Mean), mCyd in plasma, val-mCyd 50 mg PO, Day 1
Attribute Measured: AUC(0-inf) (ng·h/mL)
Numeric only. Scale: ng·h/mL

Query: Requested read-out: AUC(0-inf). Entry: CC1(O)C(O)C(CO)OC1n1ccc(N)nc1=O (stereo not shown)
Result: 3120

###

assay: Cytotoxicity assay; conditions: human, CC50, HFF, HCMV row
Attribute Measured: CC50

Query: Using the record for CC1(O)C(O)C(CO)OC1n1ccc(N)nc1=O (stereo not shown) , report its CC50.
Result: 67 to 73 µg/mL
